Reference source: patent US4241056A

Exercise: for every item that follows, state its recorded concentration at 2 h.
- assayProcedure: Serum (blood) level in rats
- Format: in vivo
- conditionSet: rat, oral 100 mg/kg, 120 min., average from 3 rats
Output should be the measured figure followed by the unit it is expressed in.

## Task Fill blank: measured concentration at 2 h of the compound CC1(C)S[C@@H]2[C@H](NC(=O)[C@H](NC(=O)Nc3cncnc3O)c3ccc(O)cc3)C(=O)N2[C@H]1C(=O)O is ____.
## Result 2900 ng/mL

## Task Then CC1(C)S[C@@H]2[C@H](NC(=O)[C@H](NC(=O)Nc3cnc(Nc4ccccc4)nc3O)c3ccc(O)cc3)C(=O)N2[C@H]1C(=O)O ?
## Result 100 ng/mL

## Task Then CC1(C)S[C@@H]2[C@H](NC(=O)[C@H](NC(=O)Nc3cnc(C4CC4)nc3O)c3ccc(O)cc3)C(=O)N2[C@H]1C(=O)O ?
## Result 1000 ng/mL

## Task Then CC1(C)S[C@@H]2[C@H](NC(=O)[C@H](NC(=O)N3CCNC3=O)c3ccccc3)C(=O)N2[C@H]1C(=O)O [Q, reference compound] ?
## Result 300 ng/mL

## Task Then CC(=O)Nc1ncc(NC(=O)N[C@@H](C(=O)N[C@@H]2C(=O)N3[C@@H]2SC(C)(C)[C@@H]3C(=O)O)c2ccc(O)cc2)c(O)n1 ?
## Result 13700 ng/mL

## Task Then Cc1ncc(NC(=O)N[C@@H](C(=O)N[C@@H]2C(=O)N3[C@@H]2SC(C)(C)[C@@H]3C(=O)O)c2ccc(O)cc2)c(O)n1 ?
## Result 1900 ng/mL

## Task Then CC1(C)S[C@@H]2[C@H](NC(=O)[C@H](NC(=O)Nc3cnc(Cc4ccc(Cl)cc4)nc3O)c3ccc(O)cc3)C(=O)N2[C@H]1C(=O)O ?
## Result 1000 ng/mL
